test system: Escherichia coli TOP10; experiment: shrunken log2 fold change of peptide-encoding DNA abundance (4.5 h post-induction vs induction); higher = less antimicrobial activity (less host growth inhibition); conditions: time post-induction: 4.5 h; library: site-saturation at positions 5, 18, 19, 20
# cutoff -0.02 applies to shrunken log2 fold change; >= gives label 1, < gives label 0

RRIRKRPPRLPRPRPRPCTEPRP : label 1
RRIRPRPPRLPRPRPRPPRLPRP : label 1
RRIRIRPPRLPRPRPRPAGCPRP : label 0
RRIRKRPPRLPRPRPRPIVRPRP : label 1
RRIRGRPPRLPRPRPRPPKYPRP : label 1
RRIRMRPPRLPRPRPRPPFIPRP : label 1
RRIRMRPPRLPRPRPRPIRAPRP : label 1
RRIRNRPPRLPRPRPRPWVTPRP : label 0

---

# reported shrunken log2 fold change; entries follow
test system: Escherichia coli TOP10; test: shrunken log2 fold change of peptide-encoding DNA abundance (4.5 h post-induction vs induction); higher = less antimicrobial activity (less host growth inhibition); settings: time post-induction: 4.5 h; library: site-saturation at positions 5, 18, 19, 20
measure-name: shrunken log2 fold change

RRIRVRPPRLPRPRPRPVEMPRP : -0.0393
RRIRWRPPRLPRPRPRPNVPPRP : -0.144
RRIRGRPPRLPRPRPRPCRQPRP : 0.436
RRIRGRPPRLPRPRPRPDEFPRP : 0.561
RRIRARPPRLPRPRPRPGLLPRP : 0.547
RRIRHRPPRLPRPRPRPNGCPRP : -0.0302
RRIRMRPPRLPRPRPRPRVSPRP : 0.0315
RRIRARPPRLPRPRPRPMFSPRP : -0.142
RRIRRRPPRLPRPRPRPVMGPRP : 0.0569
RRIRRRPPRLPRPRPRPDCPPRP : 0.4
RRIRTRPPRLPRPRPRPVTVPRP : 0.0698

---

test system: Escherichia coli TOP10; test: shrunken log2 fold change of peptide-encoding DNA abundance (4.5 h post-induction vs induction); higher = less antimicrobial activity (less host growth inhibition); settings: time post-induction: 4.5 h; library: site-saturation at positions 5, 18, 19, 20;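 also: peptides expressed intracellularly from a pBAD plasmid library in pooled LB shake-flask culture, induced with 0.3% L-arabinose, DNA abundance read by NGS, three biological replicates, DESeq2 with apeglm shrinkage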
measure-name: shrunken log2 fold change

RRIRRRPPRLPRPRPRPNYPPRP : 0.0594
RRIRNRPPRLPRPRPRPLNMPRP : -0.636
RRIRGRPPRLPRPRPRPHMFPRP : 0.445
RRIRPRPPRLPRPRPRPPDDPRP : 0.142
RRIRYRPPRLPRPRPRPGPRPRP : 0.744
RRIRKRPPRLPRPRPRPCYAPRP : 0.083
RRIRVRPPRLPRPRPRPTYPPRP : -0.194
RRIRCRPPRLPRPRPRPNQWPRP : -0.117
RRIRFRPPRLPRPRPRPTDHPRP : -0.323
RRIRERPPRLPRPRPRPWWTPRP : -0.0694
RRIRYRPPRLPRPRPRPSPCPRP : -0.8
RRIRQRPPRLPRPRPRPGKKPRP : 0.0943
RRIRPRPPRLPRPRPRPSLFPRP : -0.344
RRIRWRPPRLPRPRPRPHNEPRP : -0.476
RRIRKRPPRLPRPRPRPWDKPRP : -0.0876
RRIRTRPPRLPRPRPRPCGCPRP : 0.0633
RRIRSRPPRLPRPRPRPQWTPRP : -0.0105
RRIRYRPPRLPRPRPRPFCDPRP : -0.208
RRIRDRPPRLPRPRPRPHYFPRP : -0.119
RRIRFRPPRLPRPRPRPDAWPRP : 0.0823
RRIRERPPRLPRPRPRPCAAPRP : -0.244
RRIRKRPPRLPRPRPRPEHKPRP : 0.295
RRIRMRPPRLPRPRPRPKFKPRP : -0.0108
RRIRHRPPRLPRPRPRPPMDPRP : -0.309
RRIRMRPPRLPRPRPRPEVFPRP : 1.35
RRIRCRPPRLPRPRPRPRVDPRP : 0.113
RRIRKRPPRLPRPRPRPWYPPRP : 0.00168
